# experimental-system: Mot3 (UniProt P54785)
# Sequence: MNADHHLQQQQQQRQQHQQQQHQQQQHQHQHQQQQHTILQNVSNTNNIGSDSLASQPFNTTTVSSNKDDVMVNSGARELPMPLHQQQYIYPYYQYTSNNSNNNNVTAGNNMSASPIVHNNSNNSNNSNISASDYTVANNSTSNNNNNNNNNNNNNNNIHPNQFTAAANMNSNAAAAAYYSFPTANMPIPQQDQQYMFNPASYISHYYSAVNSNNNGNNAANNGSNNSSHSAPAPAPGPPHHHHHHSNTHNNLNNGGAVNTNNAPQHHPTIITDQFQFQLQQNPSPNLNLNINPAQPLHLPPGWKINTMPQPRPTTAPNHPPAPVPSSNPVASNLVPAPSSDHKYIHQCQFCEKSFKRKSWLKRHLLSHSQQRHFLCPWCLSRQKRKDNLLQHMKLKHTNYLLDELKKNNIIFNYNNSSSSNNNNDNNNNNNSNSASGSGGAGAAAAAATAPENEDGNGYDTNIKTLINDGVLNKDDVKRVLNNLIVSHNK
# assay-explanation: PBM E-score (8-mer binding enrichment) (E-score (-0.5 to 0.5)); higher = stronger / more preferred TF binding
# measurement-parameters: protein concentration: 200 nM; construct: GST-full length
Over roughly 33,000 sequences, “E-score (-0.5 to 0.5)” has its median near -0.035; the highest 2% begin near 0.34. What follows is part of a selection rich in the highest values, with near analogues and random picks from the rest.
Listing of recorded PBM E-score by entry.
Respond numerically, and do not add a unit to the figure.

ATTAACAC	0.384
ATACATAA	0.308
CATGTATA	0.376
GTGCGGTA	-0.0948
ACTTGCCC	0.0267

Give Mot3 (UniProt P54785) PBM E-score for ATACTTAA
0.173

How about ACTTGCCG ?
-0.189

How about AAACCCCT ?
0.0363

How about GGGAACCA ?
-0.175

How about CGACCCTA ?
-0.148

How about TGGAACCA ?
-0.133

How about AGAGAGGA ?
-0.246

How about TCAGGTAA ?
0.324

How about AGCATCCT ?
-0.268

How about GTCTCGCA ?
-0.238

How about AAAGGAGA ?
-0.0548

How about ATCAACTG ?
-0.0772

Source: the supplement of paper PMC3334620
